All values here come from patent US20240383900A1.

biological target: Human CDK12 wt/CycK (Homo sapiens (Human), UniProt Q9NYV4); assay: Radiometric protein kinase assay (33PanQinase Activity Assay), CDK12; format: biochemical; settings: read-out: CKD12 Biochemical Potency IC50
Sequence (Q9NYV4 whole entry): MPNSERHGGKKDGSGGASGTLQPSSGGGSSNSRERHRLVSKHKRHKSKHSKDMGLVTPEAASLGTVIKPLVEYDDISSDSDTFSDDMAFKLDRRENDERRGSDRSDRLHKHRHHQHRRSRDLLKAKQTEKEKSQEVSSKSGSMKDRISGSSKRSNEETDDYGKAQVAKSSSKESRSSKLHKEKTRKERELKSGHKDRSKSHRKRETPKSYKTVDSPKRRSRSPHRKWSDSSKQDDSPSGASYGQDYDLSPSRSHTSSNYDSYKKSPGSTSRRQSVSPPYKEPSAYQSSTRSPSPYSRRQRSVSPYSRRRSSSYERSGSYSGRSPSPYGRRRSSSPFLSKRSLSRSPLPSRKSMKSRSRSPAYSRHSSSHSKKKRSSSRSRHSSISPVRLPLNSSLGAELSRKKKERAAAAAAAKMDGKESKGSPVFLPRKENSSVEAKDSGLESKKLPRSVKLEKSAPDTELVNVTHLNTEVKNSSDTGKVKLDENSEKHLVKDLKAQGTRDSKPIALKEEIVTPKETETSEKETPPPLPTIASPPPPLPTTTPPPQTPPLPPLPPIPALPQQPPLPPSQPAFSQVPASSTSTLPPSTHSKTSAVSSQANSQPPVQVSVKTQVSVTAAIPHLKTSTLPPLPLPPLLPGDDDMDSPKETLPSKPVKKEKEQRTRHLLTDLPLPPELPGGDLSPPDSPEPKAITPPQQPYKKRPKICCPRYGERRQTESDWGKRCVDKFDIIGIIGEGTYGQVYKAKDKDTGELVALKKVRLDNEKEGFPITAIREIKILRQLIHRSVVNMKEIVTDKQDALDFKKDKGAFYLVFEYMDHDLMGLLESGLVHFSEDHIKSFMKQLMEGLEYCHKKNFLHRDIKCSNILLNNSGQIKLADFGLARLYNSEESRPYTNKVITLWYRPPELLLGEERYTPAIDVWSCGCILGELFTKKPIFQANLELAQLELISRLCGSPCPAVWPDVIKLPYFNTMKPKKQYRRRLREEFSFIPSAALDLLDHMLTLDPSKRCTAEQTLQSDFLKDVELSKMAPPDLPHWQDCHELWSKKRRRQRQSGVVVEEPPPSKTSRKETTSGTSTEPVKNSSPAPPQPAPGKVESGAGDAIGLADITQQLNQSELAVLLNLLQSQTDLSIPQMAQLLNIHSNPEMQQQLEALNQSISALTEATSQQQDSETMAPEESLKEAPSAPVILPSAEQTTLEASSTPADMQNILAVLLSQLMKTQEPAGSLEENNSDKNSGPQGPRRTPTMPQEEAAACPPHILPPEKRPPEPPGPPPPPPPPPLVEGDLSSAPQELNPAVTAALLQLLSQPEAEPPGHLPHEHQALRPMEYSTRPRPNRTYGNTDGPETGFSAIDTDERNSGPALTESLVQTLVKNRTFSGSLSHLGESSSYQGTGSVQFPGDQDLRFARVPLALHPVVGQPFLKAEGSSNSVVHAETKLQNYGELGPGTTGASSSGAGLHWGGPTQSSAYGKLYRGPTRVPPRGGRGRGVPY
Sequence (O75909 whole entry partner): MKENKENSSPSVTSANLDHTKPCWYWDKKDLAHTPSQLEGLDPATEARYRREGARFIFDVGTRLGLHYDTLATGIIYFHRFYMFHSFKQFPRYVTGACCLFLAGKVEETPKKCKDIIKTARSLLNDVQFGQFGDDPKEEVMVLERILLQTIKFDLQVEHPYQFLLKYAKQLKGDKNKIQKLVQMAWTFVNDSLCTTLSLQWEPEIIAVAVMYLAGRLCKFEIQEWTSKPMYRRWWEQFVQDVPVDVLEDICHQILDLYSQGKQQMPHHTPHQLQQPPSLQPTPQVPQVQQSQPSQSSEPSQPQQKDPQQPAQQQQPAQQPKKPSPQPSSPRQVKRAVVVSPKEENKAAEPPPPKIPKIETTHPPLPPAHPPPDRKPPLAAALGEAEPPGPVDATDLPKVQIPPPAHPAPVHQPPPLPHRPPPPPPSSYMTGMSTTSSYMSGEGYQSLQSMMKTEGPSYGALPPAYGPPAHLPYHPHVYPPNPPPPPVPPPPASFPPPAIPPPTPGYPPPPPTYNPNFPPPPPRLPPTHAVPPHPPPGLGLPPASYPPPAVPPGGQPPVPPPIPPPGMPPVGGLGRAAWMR

- molecular_string: "CC(C)c1cnn2c(NCc3ccc(-c4ccccc4)cc3)cc(NC[C@H]3CCNC[C@@H]3O)nc12"
  target_under_test: "Human CDK12 wt/CycK (Homo sapiens (Human), UniProt Q9NYV4)"
  units_label: "nM"
  IC50: 143
- molecular_string: "c1ccc(-c2ccc(CNc3cc(N4CC5(CNC5)C4)nc4c(C5CC5)cnn34)cc2)nc1"
  target_under_test: "Human CDK12 wt/CycK (Homo sapiens (Human), UniProt Q9NYV4)"
  units_label: "nM"
  IC50: 1120
- molecular_string: "c1ccc(-c2ccc(CNc3cc(C4CNC4)nc4c(C5CC5)cnn34)cc2)nc1"
  target_under_test: "Human CDK12 wt/CycK (Homo sapiens (Human), UniProt Q9NYV4)"
  units_label: "nM"
  IC50: 204
- molecular_string: "CC(C)c1cnn2c(NCc3ccc(-c4ncccn4)cc3)cc(NC[C@H]3CCNC[C@@H]3O)nc12"
  target_under_test: "Human CDK12 wt/CycK (Homo sapiens (Human), UniProt Q9NYV4)"
  units_label: "nM"
  IC50: 51
- molecular_string: "c1ccc(-c2ccc(CNc3cc(N[C@@H]4CCCNC4)nc4c(C5CC5)cnn34)cc2)nc1"
  target_under_test: "Human CDK12 wt/CycK (Homo sapiens (Human), UniProt Q9NYV4)"
  units_label: "nM"
  IC50: 374
- molecular_string: "N#Cc1cnn2c(NCc3ccc(-c4ccccc4)cc3F)cc(NC[C@H]3CCNC[C@@H]3O)nc12"
  target_under_test: "Human CDK12 wt/CycK (Homo sapiens (Human), UniProt Q9NYV4)"
  units_label: "nM"
  IC50: 107
- molecular_string: "COc1cc(-c2ccccn2)ccc1CNc1cc(NC[C@H]2CCNC[C@@H]2O)nc2c(C3CC3)cnn12"
  target_under_test: "Human CDK12 wt/CycK (Homo sapiens (Human), UniProt Q9NYV4)"
  units_label: "nM"
  IC50: 218
- molecular_string: "O[C@H]1CNCC[C@@H]1CNc1cc(NCc2ccc(-n3cccn3)cc2)n2ncc(C3CC3)c2n1"
  target_under_test: "Human CDK12 wt/CycK (Homo sapiens (Human), UniProt Q9NYV4)"
  units_label: "nM"
  IC50: 55
